Target: Protein kinase C delta type (Homo sapiens, UniProt Q05655)
Sequence (Q05655 whole entry): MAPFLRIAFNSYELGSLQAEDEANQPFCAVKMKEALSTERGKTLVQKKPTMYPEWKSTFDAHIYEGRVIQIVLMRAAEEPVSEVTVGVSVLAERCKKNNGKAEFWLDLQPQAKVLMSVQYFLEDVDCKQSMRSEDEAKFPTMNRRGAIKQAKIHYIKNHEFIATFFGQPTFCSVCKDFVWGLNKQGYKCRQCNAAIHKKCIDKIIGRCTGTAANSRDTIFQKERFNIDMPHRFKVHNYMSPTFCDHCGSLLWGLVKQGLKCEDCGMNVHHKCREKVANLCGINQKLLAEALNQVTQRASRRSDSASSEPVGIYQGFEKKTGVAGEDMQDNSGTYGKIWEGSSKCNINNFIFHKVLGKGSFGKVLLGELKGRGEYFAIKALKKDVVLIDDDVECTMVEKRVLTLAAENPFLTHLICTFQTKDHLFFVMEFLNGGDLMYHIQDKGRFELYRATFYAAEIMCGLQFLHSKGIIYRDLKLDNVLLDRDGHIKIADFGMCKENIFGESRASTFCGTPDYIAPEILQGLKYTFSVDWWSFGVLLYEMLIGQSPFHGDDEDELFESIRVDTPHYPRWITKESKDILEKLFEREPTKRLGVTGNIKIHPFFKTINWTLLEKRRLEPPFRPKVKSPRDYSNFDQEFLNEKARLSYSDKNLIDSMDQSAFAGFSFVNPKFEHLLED
Assay: Binding affinity for human Protein kinase C delta
readout_type: Kd
Be sure to follow the number with its unit.

QUERY: Data request, read-out Kd, for CC(C)[C@H]1C(=O)N[C@H](CO)Cc2cc(NC(=O)CCCCCCCCCCCCC(=O)Nc3ccc4c(c3)N(C)[C@@H](C(C)C)C(=O)N[C@H](CO)C4)ccc2N1C
RESULT: 1 nM

###

Sequence of the target: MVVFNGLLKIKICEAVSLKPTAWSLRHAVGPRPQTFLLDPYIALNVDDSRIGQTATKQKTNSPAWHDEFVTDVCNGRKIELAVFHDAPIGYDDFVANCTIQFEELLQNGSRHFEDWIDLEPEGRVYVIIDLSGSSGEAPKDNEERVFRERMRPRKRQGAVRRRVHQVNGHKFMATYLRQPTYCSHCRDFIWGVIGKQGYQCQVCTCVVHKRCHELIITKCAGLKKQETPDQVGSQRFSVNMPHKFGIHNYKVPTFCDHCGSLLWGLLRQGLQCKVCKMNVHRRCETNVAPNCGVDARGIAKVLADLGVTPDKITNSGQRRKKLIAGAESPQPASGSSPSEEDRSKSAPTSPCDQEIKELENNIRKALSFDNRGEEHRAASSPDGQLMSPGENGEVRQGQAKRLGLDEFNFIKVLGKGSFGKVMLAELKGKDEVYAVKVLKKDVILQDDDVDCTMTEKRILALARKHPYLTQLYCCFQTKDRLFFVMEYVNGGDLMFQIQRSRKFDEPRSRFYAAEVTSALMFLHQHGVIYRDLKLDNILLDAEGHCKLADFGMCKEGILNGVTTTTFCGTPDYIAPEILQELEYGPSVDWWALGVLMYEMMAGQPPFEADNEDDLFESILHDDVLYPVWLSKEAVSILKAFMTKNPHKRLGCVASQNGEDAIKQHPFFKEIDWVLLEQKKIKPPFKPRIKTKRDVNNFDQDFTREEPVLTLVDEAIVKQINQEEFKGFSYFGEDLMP
readout_type: Ki (pM)
# value in pM; strip the unit string

QUERY: Data request, read-out Ki, for CC(C)[C@H]1C(=O)N[C@H](CO)Cc2cc(NC(=O)CCCCCCCCCCCCC(=O)Nc3ccc4c(c3)N(C)[C@@H](C(C)C)C(=O)N[C@H](CO)C4)ccc2N1C
RESULT: 550
